Below, each of the molecules is paired with its reported pKi value.
target: recombinant human NK3 receptor (Homo sapiens); construct: expressed in transfected cells; host or cells: HEK293 cells, transient expression; membrane preparation; experiment: [3H]SR142801 competition binding assay; settings: [3H]SR142801, membranes of HEK293 cells transiently expressing recombinant human NK3 receptor; read-out: hNK3 Ki
Sequence (P29371 whole entry): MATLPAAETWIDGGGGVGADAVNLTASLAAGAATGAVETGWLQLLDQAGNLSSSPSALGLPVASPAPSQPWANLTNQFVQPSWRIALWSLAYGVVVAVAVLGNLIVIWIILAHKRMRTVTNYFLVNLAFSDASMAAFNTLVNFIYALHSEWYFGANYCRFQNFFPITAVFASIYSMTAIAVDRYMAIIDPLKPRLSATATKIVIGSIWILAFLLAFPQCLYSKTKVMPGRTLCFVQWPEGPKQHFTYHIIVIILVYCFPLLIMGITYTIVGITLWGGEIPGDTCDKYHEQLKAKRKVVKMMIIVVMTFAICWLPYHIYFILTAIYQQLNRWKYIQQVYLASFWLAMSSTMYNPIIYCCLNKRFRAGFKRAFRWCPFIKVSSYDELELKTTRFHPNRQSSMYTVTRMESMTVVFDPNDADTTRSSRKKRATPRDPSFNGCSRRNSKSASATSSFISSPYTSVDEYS
Scale: pKi equals -log10([C]), with [C] in mol/L.

Note to self: pKi recorded for CN(C)c1ccc(CNC(=O)C(C)(CCN2CCC(NS(C)(=O)=O)CC2)c2ccc(Cl)c(Cl)c2)cc1 (stereo not shown) was 6.21

The measured pKi associated with CCN(C1CCN(CCC(C)(C(=O)N(C)Cc2ccc(C)cc2)c2ccc(Cl)c(Cl)c2)CC1)S(C)(=O)=O (stereo not shown) reads 8.51

For this molecule ( CN(Cc1ccc(Cl)c(Cl)c1)C(=O)C(F)(CCN1CCC(N(C)S(C)(=O)=O)CC1)c1ccc(Cl)c(Cl)c1 (stereo not shown) ), measured pKi is 7.64

The reported pKi of the molecule CCN(C(C)=O)C1CCN(CCC(C)(C(=O)N[C@@H](CO)c2ccc(F)cc2)c2ccc(Cl)c(Cl)c2)CC1 (single isomer, unassigned; epimer 2) [Example 167] was 7.46

pKi measured on CN(Cc1ccc(Cl)c(Cl)c1)C(=O)C(C)(CCN1CCC(NS(C)(=O)=O)CC1)c1ccc(Cl)c(Cl)c1 (stereo not shown) = 7.62

pKi measured on CN(Cc1ccc(C(F)(F)F)c(F)c1)C(=O)C(F)(CCN1CCC(N(C)S(C)(=O)=O)CC1)c1ccc(Cl)c(Cl)c1 (stereo not shown) = 7.74

// pKi lookup, molecule = CC(CCN1CCC(N2CCCC2=O)CC1)(C(=O)NCc1ccc(Cl)c(Cl)c1)c1ccc(Cl)c(Cl)c1 (stereo not shown) , result: 8.64

* * *

Catalogue of log10 Ki readings, one per entry.
biological target: recombinant human NK3 receptor (Homo sapiens); construct: expressed in transfected cells; host or cells: HEK293 cells, transient expression; membrane preparation; assay: [3H]SR142801 competition binding assay; settings: [3H]SR142801, membranes of HEK293 cells transiently expressing recombinant human NK3 receptor; read-out: hNK3 Ki
Counter-ions that a name gives are not always drawn.
Recorded Ki (log10, nM)

As a guide, the following entries are already answered.
CCN(C(C)=O)C1CCN(CCC(C)(C(=O)N[C@@H](CO)c2ccc(F)cc2)c2ccc(Cl)c(Cl)c2)CC1 (single isomer, unassigned; epimer 1) [Example 166]
0.34
CN(Cc1ccc(C(F)(F)F)c(F)c1)C(=O)C(C)(CCN1CCC(NS(C)(=O)=O)CC1)c1ccc(Cl)c(Cl)c1 (single isomer, unassigned) [Example 123]
2.90
CC(=O)N(C)C1CCN(CCC(C)(C(=O)N(C)Cc2ccc(C)cc2)c2ccc(Cl)c(Cl)c2)CC1 (stereo not drawn)
1.03
CN(Cc1ccc(F)c(C(F)(F)F)c1)C(=O)C(C)(CCN1CCC(N2CCCC2=O)CC1)c1ccc(Cl)c(Cl)c1 (single isomer, unassigned) [Example 118, hydrochloride]
2.23
CN(C1CCN(CCC(C)(C(=O)N[C@@H](CO)c2ccc(Cl)c(Cl)c2)c2ccc(Cl)c(Cl)c2)CC1)S(C)(=O)=O (single isomer, unassigned; diastereoisomer 1)
0.74

Pending compound:
Lab note: measured log10 Ki of CC(=O)N(C)C1CCN(CCC(C)(C(=O)N(C)Cc2ccc(F)c(C(F)(F)F)c2)c2ccc(Cl)c(Cl)c2)CC1 (single isomer, unassigned) [Example 122] was 0.18
